# test.protocol: E. coli DRC41 culture turbidity changes, primary screen, E. coli filamentation inducer project, strain DRC41, OD650, 48 h (AID 1152);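 further: E. coli MC1000 strain DRC41 lacking acrAB efflux pump and sulA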
# setup.conditions: E. coli DRC41 (acrAB sulA), higher = more signal, called active from +8 up or from −8 down
measured.attribute: z-score
Answers are plain numbers.

Worked cases, z-score given:
compound: O=c1cccc(CCc2ccccc2)o1
measured.attribute: z-score
readout.number: -1.21
//
compound: CS(=O)(=O)CCOC(=O)C1=CC(c2ccc(CO)cc2)=CC(C2CC2)N(Cc2cc3c(cc2Br)OCO3)C=C1C(=O)OCCS(C)(=O)=O (centres undefined)
measured.attribute: z-score
readout.number: -1.9
//
compound: CC(C)c1ccc(NN2C(C(O)c3ccc(N(C)C)cc3)C=CC3C(=O)N(c4ccccc4)C(=O)C32)cc1 (centres undefined)
measured.attribute: z-score
readout.number: -0.448

--- query ---
Form field z-score, entry COCCOC(=O)N1C(=O)[C@@]2(c3ccccc31)[C@H](C(=O)Nc1nc3ccccc3s1)[C@H]1C(=O)O[C@H](c3ccccc3)[C@H](c3ccccc3)N1[C@@H]2c1ccc(OCCO)cc1 : 0.258

====

# assayed.target: NADPH oxidase 5 (Homo sapiens) (UniProt Q96PH1)
# Sequence (Q96PH1 whole entry, looked up): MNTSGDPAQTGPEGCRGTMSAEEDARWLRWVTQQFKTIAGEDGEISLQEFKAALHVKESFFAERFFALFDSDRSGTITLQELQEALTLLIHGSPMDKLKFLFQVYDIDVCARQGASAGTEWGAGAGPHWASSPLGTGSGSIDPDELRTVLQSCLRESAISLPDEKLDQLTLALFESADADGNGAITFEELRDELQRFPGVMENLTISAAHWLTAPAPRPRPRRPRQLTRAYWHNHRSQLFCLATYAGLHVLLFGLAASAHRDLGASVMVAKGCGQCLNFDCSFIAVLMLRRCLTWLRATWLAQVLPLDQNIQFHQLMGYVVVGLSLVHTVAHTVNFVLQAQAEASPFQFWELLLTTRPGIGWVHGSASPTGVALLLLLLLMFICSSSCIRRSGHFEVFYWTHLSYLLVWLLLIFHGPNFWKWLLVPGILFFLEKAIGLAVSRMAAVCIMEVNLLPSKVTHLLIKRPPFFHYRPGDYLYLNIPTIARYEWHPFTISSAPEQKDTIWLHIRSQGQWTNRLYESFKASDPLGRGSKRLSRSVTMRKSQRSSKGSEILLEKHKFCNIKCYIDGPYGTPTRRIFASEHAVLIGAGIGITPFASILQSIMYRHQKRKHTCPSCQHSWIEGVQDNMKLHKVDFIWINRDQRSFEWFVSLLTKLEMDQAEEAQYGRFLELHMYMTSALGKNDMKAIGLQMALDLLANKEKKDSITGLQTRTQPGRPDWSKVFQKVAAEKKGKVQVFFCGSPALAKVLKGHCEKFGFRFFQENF
# test.protocol: NOX5-dependent H2O2 signal modulators, primary screen, NOX inhibitor project, cell-based, HEK293-NOX5, Amplex Red fluorescence (AID 1161)
# setup.conditions: HEK293-NOX5, ionomycin, 45 min, higher = more signal
measured.attribute: z-score
Answers are plain numbers.

Worked cases, z-score given:
compound: CC(c1ccccc1)C(O)C1C=CC2C(=O)NC(=O)C2N1Nc1ccccn1 (stereo not given)
z-score: -1.79
--
compound: COc1ccc(CCNC(=O)[C@@H]2c3ccccc3C(=O)N(Cc3ccc(OC(F)(F)F)cc3)[C@H]2c2ccc(CO)cc2)cc1
z-score: -3.56
--
compound: NCCCCCCNC(=O)[C@H]1C[C@H]2C(=O)NCC(=O)N2[C@H]1c1cccc(OCCO)c1
z-score: 1.36

Hey, can you go through the list below and give me z-score for every item?
1. C=CCOC(=O)[C@@H]1[C@H]2C(=O)O[C@H](c3ccccc3)[C@H](c3ccccc3)N2[C@H](c2ccc(OCCOC(=O)[C@@H]3C[C@@H]4C(=O)N[C@@H](Cc5ccccc5)C(=O)N4[C@@H]3c3cccc(OCCO)c3)cc2)[C@@]12C(=O)Nc1ccc(I)cc12
2. O=C1O[C@@H](c2ccccc2)[C@@H](c2ccccc2)N2[C@@H](c3ccc(OCCO)cc3)[C@]3(C(=O)Nc4ccc(C#CC5=CCCCC5)cc43)[C@@H](C(=O)O)[C@H]12
3. COc1ccc(NN2C(C(O)c3ccc(OC)c(OCc4ccccc4)c3)C=CC3C(=O)N(C4CCCCC4)C(=O)C32)cc1 (stereo not given)
4. O=C1N(CCS(=O)(=O)c2ccccc2)Cc2ccccc2[C@H]2OC(c3ccc(OCCCO)cc3)=N[C@@]12CCS(=O)(=O)c1ccccc1
5. CC(C)(C)N1CC=CC23O[C@@H]4/C=C\CCCOC(=O)C4[C@H]2C(=O)N(CCO)[C@@H]3C1=O (stereo not given in full)

a:
0.727
-0.216
-0.604
0.357
2.17

====

# System: Human papillomavirus type 1a protein E7 (residues 44-93)
# test.protocol: HPV1a E7 fragment binders on microarrays, primary screen, biochemical, small-molecule microarray, residues 44-93, 635 nm fluorescence (AID 1108);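 further: E7 fragment applied at 1 µg/mL in TBST for 1 h at 4 C; score combines spot fluorescence with its signal to noise ratio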
# setup.conditions: small-molecule microarray binding, fluorescence 635 nm; higher = more signal
composite z-score vs -0.008: at or above is MET, below is NOT MET.

compound: C=C[C@@H](COC(C)=O)N(Cc1ccc([N+](=O)[O-])cc1)S(=O)(=O)c1ccc(Br)cc1
group.label: NOT MET
--
compound: C=CC[C@@]1(C(=O)NCC(O)CO)N=C(c2ccc(OCCCO)cc2)O[C@@H]1c1ccccc1N=[N+]=[N-] (stereo partly drawn)
group.label: MET
--
compound: COC(=O)[C@@]1(Cc2ccccc2)[C@H]2c3cc(C(=O)N(C)C)n(Cc4c(-c5ccccc5)noc4C)c3C[C@H]2CN1C(=O)c1ccccc1
group.label: MET

q: Exam item: decide whether the reported composite z-score for [N-]=[N+]=NCc1ccccc1C[C@@]1(C(=O)N2CCOCC2)N=C(c2ccc(OCCCO)cc2)O[C@@H]1c1ccccc1CN=[N+]=[N-] is at least -0.008.
a: NOT MET

q: Exam item: decide whether the reported composite z-score for N#Cc1ccc(NN2C(C(O)c3cccs3)C=CC3C(=O)N(c4ccccc4)C(=O)C32)cc1 (stereo not drawn) is at least -0.008.
a: MET

q: Exam item: decide whether the reported composite z-score for CCOC(=O)C1=C[C@@H](CC)N(S(=O)(=O)c2ccc(C)cc2)[C@H]1c1ccccc1 is at least -0.008.
a: MET

q: Exam item: decide whether the reported composite z-score for O=C1C=CC(=O)[C@@H]2CC(COc3ccccc3)=C3[C@@H](CCc4ccccc4)OB(O)C[C@@H]3[C@H]12 is at least -0.008.
a: MET

Values were extracted from PubChem BioAssay.
